- Species: Cavia porcellus
- method_summary: Concentration needed to achieve a 75% increase in coronary blood flow in 'Langendorff', guinea pig heart (in vitro negative inotropic activity)
- Type: functional
measured_attribute: Contractile force, % of control (%)
Give bare numbers, in %.

A selection of reference data follows.
{"compound": "COc1ccc(C#Cc2ccccc2)c(CC(C)NCCc2cccc(Cl)c2)c1 (configuration not stated)", "endpoint_unit": "%", "Contractile force, % of control": 85}
{"compound": "COc1ccc(C#Cc2ccccc2)c(CC(C)N(C)CCc2ccc(Cl)c(Cl)c2)c1 (configuration not stated)", "endpoint_unit": "%", "Contractile force, % of control": 90}
{"compound": "COc1ccc(C#Cc2ccccc2)c(CC(C)N(C)CCCCc2ccccc2)c1 (configuration not stated)", "endpoint_unit": "%", "Contractile force, % of control": 90}

I would be grateful if you could provide Contractile force, % of control for each of the following entries.
1. COc1cccc(CCN(C)C(C)Cc2cc(OC)ccc2C#Cc2ccccc2)c1 (configuration not stated)
2. COc1ccc(CCN(C)CCCC(C#N)(c2ccc(OC)c(OC)c2)C(C)C)cc1OC (configuration not stated)
3. COc1ccc(C#Cc2ccccc2)c(CCCN(C)CCc2ccc(OC)c(OC)c2)c1

a:
[95, 35, 85]

// input: 2 compounds below; output: Contractile force, % of control for each
1. COc1ccc(C#Cc2ccccc2)c(CC(C)N(C)CCc2cccc(Cl)c2)c1 (configuration not stated)
2. COc1cc(CCNC(C)Cc2cc(OC)ccc2C#Cc2ccccc2)cc(OC)c1 (configuration not stated)

a:
1: 95; 2: 120

----------
I'd be grateful if you could share measured C175 for these entries.
- Species: Cavia porcellus
- method_summary: Concentration needed to elicit a 75% increase beyond control in coronary flow in ''Langendorff'', guinea pig heart (in vitro)
- Format: functional
Give bare numbers, in µM.

Answer for every listed entry: what is its C175? The entries follow.
1. COc1cc(CCNC(C)Cc2cc(OC)ccc2C#Cc2ccccc2)cc(OC)c1 (stereo not given)
2. COc1ccc(C#Cc2ccccc2)c(CC(C)N(C)CCc2ccc(OC)c(OC)c2)c1 (stereo not given)

a:
[0.00075, 0.025]

Look at each compound and report its C175.
1. COc1cc(CCN(C)C(C)Cc2cc(OC)ccc2C#Cc2ccccc2)cc(OC)c1 (stereo not given)
2. COc1cccc(CCNC(C)Cc2cc(OC)ccc2C#Cc2ccccc2)c1 (stereo not given)
3. COc1cc(CCNC(C)CCc2cc(OC)ccc2C#Cc2ccccc2)cc(OC)c1 (stereo not given)

a:
0.0025
0.004
2.1

----------
- Species on record: Cavia porcellus
- method_summary: Concentration needed to elicit a 75% increase beyond control in coronary flow in ''Langendorff'', guinea pig heart (in vitro)
- Assay type: functional
Please map values of C175 to classes as shown: bottom range = under 0.04 µM, center range = from 0.04 µM up to 0.3 µM, top range = 0.3 µM and over

{"compound": "COc1ccc(C#Cc2ccccc2)c(CCC(C)NCCc2ccc(OC)c(OC)c2)c1 (stereo not given)", "label_value": "center range"}
{"compound": "COc1ccc(C#Cc2ccc(N(C)C)cc2)c(CC(C)N(C)CCc2ccc(OC)c(OC)c2)c1 (stereo not given)", "label_value": "bottom range"}
{"compound": "COc1ccc(C#Cc2ccccc2)c(CCN(C)C)c1", "label_value": "top range"}
{"compound": "COc1ccc(CCN(C)C(C)CCc2cc(F)ccc2C#Cc2ccccc2)cc1OC (stereo not given)", "label_value": "top range"}
{"compound": "COc1ccc(C#Cc2ccccc2)c(CC(C)NCCc2cccc(Cl)c2Cl)c1 (stereo not given)", "label_value": "bottom range"}
{"compound": "COc1ccc(C#Cc2ccccc2)c(CC(C)NCCc2ccc(Cl)c(Cl)c2)c1 (stereo not given)", "label_value": "bottom range"}
{"compound": "COc1ccc(C#Cc2ccccc2)c(CC(C)N(C)CCc2cccc(Cl)c2)c1 (stereo not given)", "label_value": "bottom range"}
{"compound": "COc1ccc(C#Cc2ccc(C(C)C)cc2)c(CC(C)N(C)CCc2ccc(OC)c(OC)c2)c1 (stereo not given)", "label_value": "top range"}

Lab note: next compound to report on.
q: Exam item: assign CCCCC#Cc1ccc(OC)cc1CCCN(C)CCc1ccc(OC)c(OC)c1 to the correct category.
a: center range

----------
- Species: Cavia porcellus
- method_summary: Concentration needed to achieve a 75% increase in coronary blood flow in 'Langendorff', guinea pig heart (in vitro negative inotropic activity)
- Assay type: functional
measured_attribute: Contractile force, % of control (%)
Give bare numbers, in %.

Look over these answered cases.
{"compound": "COc1ccc(C#Cc2ccccc2)c(CC(C)NCCc2cccc3ccccc23)c1 (stereo not given)", "measured_attribute": "Contractile force, % of control", "recorded_result": 77}
{"compound": "COc1ccc(C#Cc2ccccc2)c(CC(C)N(C)CCCc2ccccc2)c1 (stereo not given)", "measured_attribute": "Contractile force, % of control", "recorded_result": 95}

Dear reader, for each entry below, please note its Contractile force, % of control.
1. COc1ccc(C#Cc2ccc(N(C)C)cc2)c(CC(C)N(C)CCc2ccc(OC)c(OC)c2)c1 (stereo not given)
2. COc1ccc(C#Cc2ccc(C(C)C)cc2)c(CC(C)N(C)CCc2ccc(OC)c(OC)c2)c1 (stereo not given)
3. COc1ccc(C#Cc2ccccc2)c(CC(C)NCCc2ccc(Cl)c(Cl)c2)c1 (stereo not given)
4. COc1ccc(C#Cc2ccccc2)c(CCCN(C)C)c1
5. COc1cc(CCN(C)C(C)CCc2cc(OC)ccc2C#Cc2ccccc2)cc(OC)c1 (stereo not given)
6. COc1ccc(C#Cc2ccc(Cl)cc2)c(CC(C)N(C)CCc2ccc(OC)c(OC)c2)c1 (stereo not given)
7. COC(=O)C1=C(C)NC(C)=C(C(=O)OC)C1c1ccccc1[N+](=O)[O-]

a:
115
34
115
110
105
85
85

q: I am curious: what Contractile force, % of control value has been reported for COc1ccc(C#Cc2ccc(C(F)(F)F)cc2)c(CC(C)N(C)CCc2ccc(OC)c(OC)c2)c1 (stereo not given) ?
a: 90

----------
- Species on record: Cavia porcellus
- method_summary: Concentration needed to achieve a 75% increase in coronary blood flow in 'Langendorff', guinea pig heart (in vitro negative inotropic activity)
- Type: functional
measured_attribute: Contractile force, % of control (%)
Numbers only, in %.

Provide Contractile force, % of control for all items below, preserving their order.
1. CCC#Cc1ccc(OC)cc1CCCN(C)CCc1ccc(OC)c(OC)c1
2. COc1ccc(C#Cc2ccc(SC)cc2)c(CC(C)N(C)CCc2ccc(OC)c(OC)c2)c1 (stereo not given)

a:
[80, 80]

Please give Contractile force, % of control, item by item, for the list that follows.
1. COc1ccc(C#Cc2ccccc2)c(CC(C)N(C)CCc2cccc(Cl)c2Cl)c1 (stereo not given)
2. COc1cc(CCNC(C)CCc2cc(OC)ccc2C#Cc2ccccc2)cc(OC)c1 (stereo not given)

a:
1: 58; 2: 87

----------
- Species: Cavia porcellus
- method_summary: Concentration needed to elicit a 75% increase beyond control in coronary flow in ''Langendorff'', guinea pig heart (in vitro)
- Format: functional
What C175 was measured for each of the following?
Answers are plain numbers, in µM.

{"molecule": "COc1ccc(C#Cc2ccccc2)c(CC(C)N(C)CCCc2ccccc2)c1 (centres undefined)", "measured_attribute": "C175", "recorded_result": 2.5}
{"molecule": "COc1ccc(C#Cc2ccccc2)c(CCCN(C)CCc2ccc(OC)c(OC)c2)c1", "measured_attribute": "C175", "recorded_result": 3}
{"molecule": "COc1ccc(C#Cc2ccccc2)c(CC(C)NCCc2ccc(OC)c(OC)c2)c1 (centres undefined)", "measured_attribute": "C175", "recorded_result": 0.027}
{"molecule": "COc1ccc(C#Cc2ccc(C(F)(F)F)cc2)c(CC(C)N(C)CCc2ccc(OC)c(OC)c2)c1 (centres undefined)", "measured_attribute": "C175", "recorded_result": 2}

Each molecule below has a recorded value; state its C175.
1. COc1ccc(CCN(C)C(C)Cc2ccccc2C#Cc2ccccc2)cc1OC (centres undefined)
2. COC(=O)C1=C(C)NC(C)=C(C(=O)OC)C1c1ccccc1[N+](=O)[O-]
3. COc1ccc(C#Cc2ccccc2)c(CC(C)N(C)CCc2ccc(Cl)c(Cl)c2)c1 (centres undefined)
4. COc1ccc(CCN(C)CCCC(C#N)(c2ccc(OC)c(OC)c2)C(C)C)cc1OC (centres undefined)

a:
[0.2, 0.013, 0.004, 0.1]

----------
- Organism: Cavia porcellus
- method_summary: Concentration needed to elicit a 75% increase beyond control in coronary flow in ''Langendorff'', guinea pig heart (in vitro)
- Format: functional
Assignment: determine reported C175 for the given compounds.

Below are some compounds; for each one, tell me its C175.
1. COc1ccc(C#Cc2ccc(SC)cc2)c(CC(C)N(C)CCc2ccc(OC)c(OC)c2)c1 (stereo not given)
2. COc1ccc(C#Cc2ccccc2)c(CC(C)NCCc2cccc3ccccc23)c1 (stereo not given)
3. COc1ccc(C#Cc2ccc([S+](C)[O-])cc2)c(CC(C)N(C)CCc2ccc(OC)c(OC)c2)c1 (stereo not given)
4. COc1ccc(C#Cc2ccccc2)c(CC(C)N(C)CCCCc2ccccc2)c1 (stereo not given)

a:
0.55 µM
0.083 µM
3 µM
2.75 µM

Required: C175, one value per compound below.
1. CCCCN(CCc1ccc(OC)c(OC)c1)C(C)Cc1cc(OC)ccc1C#Cc1ccccc1 (stereo not given)
2. COc1ccc(C#Cc2ccccc2)c(CC(C)NCCc2cccc(Cl)c2)c1 (stereo not given)
3. COc1ccc(C#Cc2ccccc2)c(CCC(C)N(C)CCc2ccc(OC)c(OC)c2)c1 (stereo not given)
4. CCC#Cc1ccc(OC)cc1CCCN(C)CCc1ccc(OC)c(OC)c1
5. COc1ccc(C#Cc2ccc(Cl)cc2)c(CC(C)N(C)CCc2ccc(OC)c(OC)c2)c1 (stereo not given)
6. COc1ccc(C#CCCc2ccccc2)c(CCCN(C)CCc2ccc(OC)c(OC)c2)c1

a:
1: >3 µM; 2: 0.03 µM; 3: 0.025 µM; 4: 1 µM; 5: 0.3 µM; 6: 1.25 µM
